In what follows, each item is paired with its log10 of IC50 for Cholinesterase (Equus caballus).
Note the log scale: values are log10 of IC50 expressed in µM.

| compound | log10 of IC50 |
| --- | --- |
| COc1cc2[se]n(CCC3CCN(Cc4ccccc4)CC3)c(=O)c2cc1OC | 0.20 |
| O=c1c2ccccc2[se]n1CCC1CCN(Cc2ccccc2)CC1 | 0.33 |
| COc1cc2[se]n(CCCCC3CCN(Cc4ccccc4)CC3)c(=O)c2cc1OC | -0.29 |
| COc1cc2[se]n(CC3CCN(Cc4ccccc4)CC3)c(=O)c2cc1OC | 0.59 |
| O=c1c2ccccc2[se]n1C1CCN(Cc2ccccc2)CC1 | 0.92 |

For every item below, please supply its log10 of IC50.
1. COc1cc2[se]n(CCCC3CCN(Cc4ccccc4)CC3)c(=O)c2cc1OC
2. O=c1c2ccccc2[se]n1-c1ccccc1
3. COc1cc2[se]n(C3CCN(Cc4ccccc4)CC3)c(=O)c2cc1OC
4. O=c1c2ccc(Cl)cc2[se]n1CC1CCN(Cc2ccccc2)CC1
5. O=c1c2ccc(F)cc2[se]n1CCC1CCN(Cc2ccccc2)CC1

0.18
1.02
0.98
0.36
0.56

For every item below, please supply its log10 of IC50.
1. O=c1c2ccc(F)cc2[se]n1C1CCN(Cc2ccccc2)CC1
2. O=c1c2ccc(Cl)cc2[se]n1CCC1CCN(Cc2ccccc2)CC1
3. O=c1c2ccccc2[se]n1CC1CCN(Cc2ccccc2)CC1

1. 1.03
2. 0.37
3. 0.56

For every item below, please supply its log10 of IC50.
1. COc1cc2c(cc1OC)[Se](=O)N(CCC1CCN(Cc3ccccc3)CC1)C2=O (stereo unspecified)
2. O=c1c2ccc(F)cc2[se]n1CC1CCN(Cc2ccccc2)CC1
3. O=c1c2ccc(Cl)cc2[se]n1C1CCN(Cc2ccccc2)CC1

[0.13, 0.54, 1.33]
